Substrate: O=C1c2c(O)cc(O)cc2O[C@H](c2ccc(O)c(O)c2)[C@H]1O
TEST: purified protein
Type: biochemical, Camellia sinensis
CONDITIONS: apparent Km, NADPH, 0.1 M potassium phosphate pH 7.0, 30 °C
OBSERVABLE: Km (µM)
Report the value in µM with no unit label.

For orientation, consider the following solved cases.
>  <PROTEIN>
CsDFRc (Camellia sinensis) (protein) MEDTKSKLQEGSAVESLTTTTYCVTGATGYIGSWLVKSLLQRGYRVHATVRNQAKTLHLLPLWGGGDRLRVFRADLHKEGSFNEAVQGCSGVFHVAASMEFEVPAKEDIDSYVRANVIEPAINGTLNLLKSCLKTPSVRRVVFTSSISTMTAKDSAGKWRSVVDESCQNPIDRVWKTKTGAWVYVLSKLLTEEAAFQFANENSIDLVSVITTTVAGPFLTSTVPTSVQVLLSPITGDSKFSRILSAVNSRMGSIALVHIEDICSAHIFLMEHDGAEGRYICSAHSSVISQLVDHLAKEHPFSNMQRLVEEEHGSVPSEISSKKLRDLGFNFKFGLEDIIHHTVSSCVDCGFLCPTVN

>  <OBSERVABLE>
Km

>  <VALUE_OBSERVED>
81.80

$$$$
>  <PROTEIN>
CsDFRb1 (Camellia sinensis; N120S) (protein, only point mutants active) MEVVEVKNGYGGGGGTTVCVTGASGFIGSWLVMRLLQRGYYVRATVRDPDNTDKVKHLLDLPNATTHLSLWKADLDEDGSFDDAIQGCHGVFHVATPMNFVFVMDPENEYIKPTVDGVLSVMRSCCKAKTVKRIIYTSTMATIEYQQKPPSQYDESIWTDVDFCRARKMFAWMYLVAKTEAEKAAWKFAEDNGPDLITVHPCSVIGPFITPYKPPCTSMALALITKNKAFYPMLTQGHAVHVDDVCNAHIYLFEHPQAKGRYICSSHSFTILDLASSLSKKYPEYNIQTKFEDIDESLKPIPCPSKKLLDLGFKFKYNSDECDAGDLCAEAIEACKEKGQMPSL

>  <OBSERVABLE>
Km

>  <VALUE_OBSERVED>
108.66

$$$$

Next up:
[in] Can you share its Km? I mean this protein: CsDFRb1 (Camellia sinensis; C126T) (protein, only point mutants active) MEVVEVKNGYGGGGGTTVCVTGASGFIGSWLVMRLLQRGYYVRATVRDPDNTDKVKHLLDLPNATTHLSLWKADLDEDGSFDDAIQGCHGVFHVATPMNFVFVMDPENEYIKPTVDGVLNVMRSCTKAKTVKRIIYTSTMATIEYQQKPPSQYDESIWTDVDFCRARKMFAWMYLVAKTEAEKAAWKFAEDNGPDLITVHPCSVIGPFITPYKPPCTSMALALITKNKAFYPMLTQGHAVHVDDVCNAHIYLFEHPQAKGRYICSSHSFTILDLASSLSKKYPEYNIQTKFEDIDESLKPIPCPSKKLLDLGFKFKYNSDECDAGDLCAEAIEACKEKGQMPSL
[out] 102.57
